Molecular target: T1, hIL10Ra ECD antigen (human, UniProt Q13651 22-235)
T1 construct: also called ECD of IL10Ra; extracellular domain of hIL10Ra
T1 sequence: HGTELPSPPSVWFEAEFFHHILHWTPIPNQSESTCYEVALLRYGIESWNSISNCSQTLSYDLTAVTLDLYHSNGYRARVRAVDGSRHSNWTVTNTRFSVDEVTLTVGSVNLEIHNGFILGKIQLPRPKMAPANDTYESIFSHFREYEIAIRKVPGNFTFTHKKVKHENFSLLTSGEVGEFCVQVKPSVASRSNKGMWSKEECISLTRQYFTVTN
Experiment: periplasmic extract ELISA (PE-ELISA) of phage clones
Experimental Endpoint: binding result

[[record]]
binder = "hIL10Ra VHH18 (VHH, Phage clone, periplasmic extract) VHH: QVQLQESGGGSVQAGGSLRLSCAVSGYTYNSNCMGWFRQAPGKEREGVATIYTGVGSTYYADSVKGRFTISQDNAKNTVYLQMNSLKPEDTAMYYCAAEPLSRVYGGSCPTPTFGYWGQGTQVTVSS"
experimental_endpoint = "binding result"
obs_value = "binds"

[[record]]
binder = "hIL10Ra VHH11 (VHH, Phage clone, periplasmic extract) VHH: QVQLQESGGGSVQAGGSLRLSCGASRYTYSSYCMGWFRQAPGKEREGVAVIDSDGSTSYADSVKGRFTISKDNGKNTLYLQMNSLKPEDTAMYYCAADLGHYRPPCGVLYLGMDYWGKGTQVTVSS"
experimental_endpoint = "binding result"
obs_value = "binds"

